molecular target: RARβ (Homo sapiens (Human), UniProt P10826); assay: Transactivation assay, human RARβ; format: cell-based; settings: Table 1; all human data; read-out: RARβ potency EC50
Sequence (P10826 183-417): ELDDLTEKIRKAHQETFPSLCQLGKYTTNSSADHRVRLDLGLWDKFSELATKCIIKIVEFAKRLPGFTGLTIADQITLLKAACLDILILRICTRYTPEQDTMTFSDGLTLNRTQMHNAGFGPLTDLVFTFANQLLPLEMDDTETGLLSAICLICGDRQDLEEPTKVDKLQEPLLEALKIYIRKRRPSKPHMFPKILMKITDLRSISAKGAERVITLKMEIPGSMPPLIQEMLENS
pEC50: −log10 of the molar value.
Recorded metric: pEC50

| Molecule | Recorded metric | Data value |
| --- | --- | --- |
| COc1ccc(-c2ccc3cc(C(=O)O)ccc3c2)cc1C1(C)CCCCC1 | pEC50 | 9.08 |

---

molecular target: RARγ (Mus musculus (Mouse), UniProt P18911); experiment: Transactivation assay for RARγ (gal4-RAR fusion, pFR-luc reporter, COS-7 cells), Table 2; assay type: cell-based; conditions: fold-selectivity for RARβ over RARγ; >1 = selective for RARβ
Sequence (P18911 185-419): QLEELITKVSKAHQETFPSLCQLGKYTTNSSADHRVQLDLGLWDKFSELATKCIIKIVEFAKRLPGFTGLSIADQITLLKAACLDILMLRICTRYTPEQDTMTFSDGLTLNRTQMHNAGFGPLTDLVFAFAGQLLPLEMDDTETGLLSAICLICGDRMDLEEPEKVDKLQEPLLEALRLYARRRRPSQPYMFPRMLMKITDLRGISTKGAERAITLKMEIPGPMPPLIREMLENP
Note to self: values exactly at 2 are satisfied. So RARγ/RARβ ratio at or above 2 is satisfied, below is not satisfied.

| Compound | Assigned class |
| --- | --- |
| Cc1ccc(C(C)C)c2cc(-c3nc(-c4ccc(C(=O)O)cc4)no3)oc12 [BHBA-010] | not satisfied |
| Cc1ccc(Cl)c2oc(-c3nc(-c4ccc(C(=O)O)cc4Cl)no3)cc12 [BHBA-017] | satisfied |
| Cc1ccc(C)c2sc(-c3nc(-c4ccc(C(=O)O)cc4)no3)nc12 [BHBA-027] | satisfied |
| Cc1ccc(C)c2oc(-c3nnc(-c4ccc(C(=O)O)cc4Cl)o3)cc12 [BHBA-036] | satisfied |
| Cc1ccc(C)c2oc(-c3nc(-c4ccc(C(=O)O)cc4)ns3)cc12 [BHBA-038] | not satisfied |
| O=C(O)c1ccc(-c2noc(-c3cc4c(Cl)ccc(Cl)c4o3)n2)c(Cl)c1 [BHBA-012] | not satisfied |
| Cc1ccc(C)c2oc(-c3nsc(-c4ccc(C(=O)O)c(F)c4)n3)cc12 [BHBA-044] | not satisfied |
| Cc1ccc(C)c2oc(-c3noc(-c4ccc(C(=O)O)c(F)c4)n3)cc12 [BHBA-033] | not satisfied |
| Cc1ccc(C)c2oc(-c3nsc(-c4ccc(C(=O)O)cc4)n3)cc12 [BHBA-042] | not satisfied |
| Cc1ccc(C)c2oc(-c3noc(-c4ccc(C(=O)O)cc4F)n3)cc12 [BHBA-030] | not satisfied |
| Cc1ccc(C)c2oc(-c3nc(-c4ccc(C(=O)O)c(F)c4)ns3)cc12 [BHBA-041] | not satisfied |
| Cc1cc(-c2nc(-c3cc4c(C)ccc(C)c4o3)no2)ccc1C(=O)O [BHBA-032] | satisfied |
| Cc1ccc(C)c2sc(-c3nc(-c4ccc(C(=O)O)cc4Cl)no3)cc12 [BHBA-022] | not satisfied |

Source listed as patent US10752616B2.
